- measurement-target: human VAP-1 enzyme (SSAO) (Homo sapiens, UniProt Q16853)
- Construct: made in house; cell extract used
- Sequence (Q16853 whole entry): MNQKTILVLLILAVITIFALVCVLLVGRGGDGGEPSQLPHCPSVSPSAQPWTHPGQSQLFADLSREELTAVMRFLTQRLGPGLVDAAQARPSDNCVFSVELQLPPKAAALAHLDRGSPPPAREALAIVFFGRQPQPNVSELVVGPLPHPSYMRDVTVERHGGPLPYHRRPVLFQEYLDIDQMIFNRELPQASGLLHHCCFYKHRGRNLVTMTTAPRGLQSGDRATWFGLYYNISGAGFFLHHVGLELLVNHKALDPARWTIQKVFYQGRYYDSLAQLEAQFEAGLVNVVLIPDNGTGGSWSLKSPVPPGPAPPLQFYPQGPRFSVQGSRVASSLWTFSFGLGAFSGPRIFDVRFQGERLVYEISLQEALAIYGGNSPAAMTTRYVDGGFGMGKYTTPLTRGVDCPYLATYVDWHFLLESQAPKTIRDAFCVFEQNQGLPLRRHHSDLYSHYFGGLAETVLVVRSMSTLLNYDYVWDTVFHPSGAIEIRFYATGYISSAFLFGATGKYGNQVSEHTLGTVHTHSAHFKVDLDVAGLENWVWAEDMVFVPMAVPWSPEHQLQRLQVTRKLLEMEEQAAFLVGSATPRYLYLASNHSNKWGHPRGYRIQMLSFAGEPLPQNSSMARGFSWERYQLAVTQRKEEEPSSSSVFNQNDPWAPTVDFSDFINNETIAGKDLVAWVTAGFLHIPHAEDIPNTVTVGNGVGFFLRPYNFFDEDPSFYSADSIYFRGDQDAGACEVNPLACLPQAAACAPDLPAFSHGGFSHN
- experimental-details: Enzyme activity inhibitory effect on human VAP-1 enzyme (SSAO), radiochemical-enzyme assay with 14C-benzylamine
- Assay type: biochemical
- experimental-conditions: human VAP-1 (SSAO) cell extract, 14C-benzylamine 1×10^−5 mol/l, 37° C. 2 hours
Where a name gives a salt, the structure may show the parent alone.
readout-type: IC50 (nM)

Look over these answered cases.
[
  {
    "compound": "CC(=O)Nc1nc(CCc2ccc(CNC(=O)NN)cc2)cs1.Cl [Production Example 18, hydrochloride]",
    "quantity-unit": "nM",
    "IC50": 4
  },
  {
    "compound": "CC(=O)Nc1nc(C(=O)Nc2ccc(CNC(=O)NN)cc2)cs1.Cl [Production Example 24, hydrochloride]",
    "quantity-unit": "nM",
    "IC50": 7.3
  },
  {
    "compound": "CC(=O)Nc1nc(CCc2csc(CCCOC(=O)NN)c2)cs1.Cl [Production Example 15, hydrochloride]",
    "quantity-unit": "nM",
    "IC50": 13.4
  }
]

(a) CC(=O)Nc1nc(CCc2cc(C)c(CCCOC(=O)NN)s2)cs1.Cl [Production Example 17, hydrochloride]
(b) CC(=O)Nc1nc(CCc2ccc(CNC(=O)NN)c(F)c2F)cs1 [Production Example 22, hydrochloride]
Prompt: From the items above, decide which of a and b has the lower IC50 reading. API: response body contains the label of the selected item.
Completion: b

(1) CC(=O)Nc1nc(CCc2ccc(COC(=O)NN)cc2)cs1.Cl [Production Example 2, hydrochloride]
(2) CC(=O)Nc1nc(CCc2cc(C)c(CCCNC(=O)NN)s2)cs1.Cl [Production Example 33, hydrochloride]
Prompt: From the items above, decide which of 1 and 2 has the lower IC50 reading. API: response body contains the label of the selected item.
Completion: 1
(1: 0.9 nM, 2: 108 nM)

###

- measurement-target: human VAP-1 enzyme (SSAO) (Homo sapiens, UniProt Q16853)
- Construct: made in house; cell extract used
- experimental-details: Enzyme activity inhibitory effect on human VAP-1 enzyme (SSAO), radiochemical-enzyme assay with 14C-benzylamine
- Format: biochemical
- experimental-conditions: human VAP-1 (SSAO) cell extract, 14C-benzylamine 1×10^−5 mol/l, 37° C. 2 hours
- Description: The compounds of the present invention obtained in Production Examples were examined for the enzyme activity inhibitory effect on human and rat VAP-1 enzyme (SSAO) by the following method. The VAP-1 enzyme (SSAO) activity in both human and rat was measured by a radiochemical-enzyme assay using ^14C-benzylamine as an artificial substrate. […] The oxidation product was extracted with 1 ml toluene/ethyl acetate (1:1), and the radioactivity thereof was measured by a liquid scintillation counter.
Structures can show the parent of a compound that is named as a salt.
readout-type: IC50 (nM)

[
  {
    "compound": "CC(=O)Nc1nc(CCc2ccc(CSC(=O)NN)s2)cs1 [Production Example 36, hydrochloride]",
    "quantity-unit": "nM",
    "IC50": 2.3
  },
  {
    "compound": "CC(=O)Nc1nc(CCc2cccc(COC(=O)NN)c2)cs1.Cl [Production Example 11, hydrochloride]",
    "quantity-unit": "nM",
    "IC50": 1.3
  },
  {
    "compound": "CC(=O)Nc1nc(C(=O)Nc2ccc(CCOC(=O)NN)cc2)cs1.Cl [Production Example 9, hydrochloride]",
    "quantity-unit": "nM",
    "IC50": 17.1
  },
  {
    "compound": "CC(=O)Nc1nc(C(=O)Oc2ccc(CCOC(=O)NN)cc2)cs1.Cl [Production Example 8, hydrochloride]",
    "quantity-unit": "nM",
    "IC50": 6.4
  },
  {
    "compound": "CC(=O)Nc1nc(CCc2cccc(CNC(=O)NN)c2)cs1.Cl [Production Example 27, hydrochloride]",
    "quantity-unit": "nM",
    "IC50": 2.1
  }
]

(I) CC(=O)Nc1nc(CCc2ccc(CNC(=O)NN)c(F)c2)cs1.Cl [Production Example 20, hydrochloride]
(II) CC(=O)Nc1nc(CCc2ccc(CCNC(=O)NN)s2)cs1.Cl [Production Example 30, hydrochloride]
Prompt: Endpoint returns whichever of I and II has the numerically higher IC50. API: response body contains the label of the selected item.
Completion: II

###

- measurement-target: rat VAP-1 enzyme (SSAO) (Rattus norvegicus)
- Construct: made in house; cell extract used
- Sequence (O08590 1-763): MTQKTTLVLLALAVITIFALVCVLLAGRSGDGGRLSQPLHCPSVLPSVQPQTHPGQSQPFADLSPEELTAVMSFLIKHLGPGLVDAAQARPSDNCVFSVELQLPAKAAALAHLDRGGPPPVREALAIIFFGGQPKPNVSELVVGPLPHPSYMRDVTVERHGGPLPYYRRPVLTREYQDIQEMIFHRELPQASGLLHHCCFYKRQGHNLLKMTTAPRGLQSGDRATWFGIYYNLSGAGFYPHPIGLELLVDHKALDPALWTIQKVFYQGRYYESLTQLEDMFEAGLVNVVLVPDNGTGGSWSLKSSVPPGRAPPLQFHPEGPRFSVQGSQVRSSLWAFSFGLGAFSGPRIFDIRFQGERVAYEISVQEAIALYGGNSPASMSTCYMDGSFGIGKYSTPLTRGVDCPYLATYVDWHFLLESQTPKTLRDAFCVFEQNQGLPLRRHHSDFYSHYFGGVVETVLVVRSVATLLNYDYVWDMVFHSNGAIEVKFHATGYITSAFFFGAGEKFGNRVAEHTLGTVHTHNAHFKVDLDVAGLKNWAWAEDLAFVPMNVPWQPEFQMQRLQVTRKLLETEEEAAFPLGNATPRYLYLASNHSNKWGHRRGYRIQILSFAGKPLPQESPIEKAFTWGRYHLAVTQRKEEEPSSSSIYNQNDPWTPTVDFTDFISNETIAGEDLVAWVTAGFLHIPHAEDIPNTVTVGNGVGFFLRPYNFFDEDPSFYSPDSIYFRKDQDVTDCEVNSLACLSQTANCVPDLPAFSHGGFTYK
- experimental-details: Enzyme activity inhibitory effect on rat VAP-1 enzyme (SSAO), radiochemical-enzyme assay with 14C-benzylamine
- Assay type: biochemical
- experimental-conditions: rat VAP-1 (SSAO) cell extract, 14C-benzylamine 1×10^−5 mol/l, 37° C. 2 hours
Where a name gives a salt, the structure may show the parent alone.
readout-type: IC50 (nM)

Look over these answered cases.
[
  {
    "compound": "CC(=O)Nc1nc(CCc2ccc(COC(=O)NN)s2)cs1 [Production Example 13, hydrochloride]",
    "readout-type": "IC50",
    "measured-result": 0.7
  },
  {
    "compound": "CC(=O)Nc1nc(CCc2ccc(CCNC(=O)NN)s2)cs1.Cl [Production Example 30, hydrochloride]",
    "readout-type": "IC50",
    "measured-result": 3.8
  }
]

(1) CC(=O)Nc1nc(CCc2ccc(CCOC(=O)NN)s2)cs1 [Production Example 14, hydrochloride]
(2) CC(=O)Nc1nc(CCc2ccc(COC(=O)NN)cc2)cs1.Cl [Production Example 2, hydrochloride]
Prompt: From the items above, decide which of 1 and 2 has the lower IC50 reading. API: response body contains the label of the selected item.
Completion: 2
(2: 0.7 nM, 1: 5.3 nM)

(1) CC(=O)Nc1nc(COc2ccc(CCOC(=O)NN)cc2)cs1
(2) CC(=O)Nc1nc(CCc2ccc(COC(=O)NN)c(F)c2F)cs1 [Production Example 6, hydrochloride]
Prompt: From the items above, decide which of 1 and 2 has the lower IC50 reading. API: response body contains the label of the selected item.
Completion: 2
(2: 0.6 nM, 1: 7.1 nM)

###

Structures can show the parent of a compound that is named as a salt.
Entries and their melting point values follow.

Look over these answered cases.
[
  {
    "compound": "CC(=O)Nc1nc(CCc2ccc(OC(=O)NN)cc2)cs1.Cl",
    "measured-result": "167 to 169 °C"
  },
  {
    "compound": "CC(=O)Nc1nc(CCc2ccc(COC(=O)NN)c(F)c2)cs1.Cl",
    "measured-result": "162 to 165 °C"
  },
  {
    "compound": "CC(=O)Nc1nc(CCc2cccc(CNC(=O)NN)c2)cs1.Cl",
    "measured-result": "123 to 127 °C"
  }
]

Prompt: Could you share which melting point value was measured for CC(=O)Nc1nc(CCc2ccc(CNC(=O)NN)c(F)c2)cs1.Cl ?
Completion: 172 to 175 °C

Prompt: Could you share which melting point value was measured for CC(=O)Nc1nc(CCc2ccc(CCNC(=O)NN)cc2)cs1.Cl ?
Completion: 171 to 173 °C

Prompt: Could you share which melting point value was measured for CC(=O)Nc1nc(CCc2cc(CCCNC(=O)NN)cs2)cs1 (as salt: hydrochloride) ?
Completion: 111 to 115 °C

These measurements were taken from patent US8507690B2.
